Target: Env of HIV-1 strain Du172.17 (HIV-1)
Test: cell-based or functional assay
# neutralization IC50 per record follows
EXPERIMENTAL ENDPOINT: neutralization IC50

BINDER | RECORDED VALUE
γ4κ3 (antibody, V domains shown) VH: QIHLVQSGTEVKKPGSSVTVSCKAYGVNTFGLYAVNWVRQAPGQSLEYIGQIWRWKSSASHHFRGRVIISAVDLTGSSPPISPLEIKNLTSDDTAVYFCTTTSTSDRWSGLHHDGVMAFSSWGQGTLISVSA VL: DIQMTQSPSTLSASIGDTVRISCRASQSITGNWLAWYHQRPGKAPRLLIYRGSRLLGGVPSRFSGSAAGTDFTLTIANLQAEDFGTFYCQQYDTYPGTFGQGTKVEVKR | > 15 mg/L
γ3κ3 (antibody, V domains shown) VH: QIHLVQSGTEVKKPGSSVTVSCKAYGVNTFGLYAVSWVRQAPGQRLEYIGQIRRWKSSASHHFRGRVTVSAVDPTGSSPPISSLEIRDLTTDDTAVYFCTTTSTSDYWSGLHNERGTAFSSWGQGTLISVSA VL: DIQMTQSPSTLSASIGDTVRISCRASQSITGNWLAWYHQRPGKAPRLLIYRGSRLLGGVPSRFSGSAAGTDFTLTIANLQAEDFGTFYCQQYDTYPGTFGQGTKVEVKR | > 15 mg/L
γ59κ61 (antibody, V domains shown) VH: QIHLVQSGTEVKKPGSSVTVSCKAYGVNTFGLYAVNWVRQAPGQGLEYIGQIWRWKSSASHHFRGRVLISAVDLTGSSPPISSLEIKNVTSDDTAVYFCTTTSTYDEWSDLHHDGVMAFSSWGQGTLISVSA VL: DIQMTQSPSTLSASIGDTVRISCRASQSITGNWVAWYHQRPGKAPRLLIYRGAALLGGVPSRFSGSAAGTDFTLTIGNLQAEDFGTFYCQQYDTYPGTFGQGTKVEVKR | > 15 mg/L
γ20κ19 (antibody, V domains shown) VH: QIHLVQSGTEVKKPGSSVAVSCKAYGVNTFGLYAVNWVRQAPGQSLEYIGQIWRWKSSASHDFRGRVIISAVDLTGSSPPISSLEIKNLTSDDTAVYFCTATSTPDYWSGLHHDGVMAFSSWGQGTLISVSA VL: DIQMTQSPSTLSASVGDTVRISCRASQSITGGWLAWYHQRPGKAPRLLIYRGSRLLGGVPSRFSGSAAGTGFTLTIANLQAEDFGTFYCQQYDTYPGTFGQGTKVEVKR | > 15 mg/L
8ANC3044 (antibody, V domains shown) VH: QIHLVQSGTEVRKPGSSVTVSCKAYGVNTFGLYAVNWVRQAPGQSLEYIGQIWRWKSSASHHFRGRVLISAVDLTGSSPPISSLEIKNLTSDDTAVYFCTTTSTYDKWSGLHHDGVMAFSSWGQGTLISVSA VL: DIQMTQSPSTLSASIGDTVRISCRASQSITGNWVAWYQQRPGKAPRLLIYRGAALLGGVPSRFSGSAAGTDFTLTIGNLQTEDFGTFYCQQYDTYPGTFGQGTKVEVKR | > 30 mg/L

Reference source for all entries: patent US20180171001A1
